Tested on: wild oat (Avena fatua)
Experiment: Test B pre-/postemergence plant response
Type: in vivo
Conditions: Postemergence, 125 g ai/ha; visual rating after 13 to 15 days, scale 0 (no effect) to 100 (complete control)
METRIC NAME: Plant response rating, Oat, Wild

- COMPOUND: "Cc1ccc(-c2ncc(C(=O)C3=C(O)CCCC3=O)c(=O)n2-c2ccccc2)cc1 [Compound 80]"
  TARGET SYSTEM: "wild oat (Avena fatua)"
  METRIC NAME: "Plant response rating, Oat, Wild"
  EXPERIMENTAL VALUE: 40
- COMPOUND: "Cc1ccccc1-n1c(-c2cccc(Cl)c2)ncc(C(=O)C2=C(O)CCCC2=O)c1=O [Compound 36]"
  TARGET SYSTEM: "wild oat (Avena fatua)"
  METRIC NAME: "Plant response rating, Oat, Wild"
  EXPERIMENTAL VALUE: 75
- COMPOUND: "CCCc1ncc(C(=O)C2=C(O)CCCC2=O)c(=O)n1-c1ccccc1C [Compound 73]"
  TARGET SYSTEM: "wild oat (Avena fatua)"
  METRIC NAME: "Plant response rating, Oat, Wild"
  EXPERIMENTAL VALUE: 80
- COMPOUND: "Cc1cccc(Cl)c1-n1c(-c2ccccc2)ncc(C(=O)C2=C(O)CCCC2=O)c1=O [Compound 46]"
  TARGET SYSTEM: "wild oat (Avena fatua)"
  METRIC NAME: "Plant response rating, Oat, Wild"
  EXPERIMENTAL VALUE: 20
- COMPOUND: "O=C1CCCC(O)=C1C(=O)c1cnc(-c2ccccc2Br)n(-c2ccccc2)c1=O [Compound 71]"
  TARGET SYSTEM: "wild oat (Avena fatua)"
  METRIC NAME: "Plant response rating, Oat, Wild"
  EXPERIMENTAL VALUE: 0

====

Tested on: umbrella sedge (Cyperus difformis)
Test: Test B flooded paddy test
Assay type: in vivo
Conditions: Flood (flooded paddy test), 62 g ai/ha; scale 0 to 100, 0 is no effect, 100 is complete control; 13 to 15 days

- MOLECULE: "Cc1ccc(F)cc1-n1c(-c2ccccc2)ncc(C(=O)C2=C(O)CCCC2=O)c1=O [Compound 44]"
  Plant response rating, Sedge, Umbrella: 80
- MOLECULE: "O=C1CCCC(O)=C1C(=O)c1cnc(-c2ccccc2)n(-c2cccc(F)c2)c1=O [Compound 22]"
  Plant response rating, Sedge, Umbrella: 30
- MOLECULE: "Cc1ccc(-n2c(-c3ccccc3)ncc(C(=O)C3=C(O)CCCC3=O)c2=O)c(C)c1 [Compound 28]"
  Plant response rating, Sedge, Umbrella: 70
- MOLECULE: "Cc1ccccc1-n1c(-c2cccc(Cl)c2)ncc(C(=O)C2=C(O)CCCC2=O)c1=O [Compound 36]"
  Plant response rating, Sedge, Umbrella: 0
- MOLECULE: "CCn1ncc(C(=O)c2cnc(-c3ccccc3)n(-c3ccccc3)c2=O)c1OS(=O)(=O)c1ccc(C)cc1 [Compound 16]"
  Plant response rating, Sedge, Umbrella: 0
- MOLECULE: "Cc1cc(C)cc(-n2c(-c3ccccc3)ncc(C(=O)C3=C(O)CCCC3=O)c2=O)c1 [Compound 33]"
  Plant response rating, Sedge, Umbrella: 30
- MOLECULE: "Cc1ccccc1-n1c(-c2ccccc2)ncc(C(=O)C2=C(O)CCCC2=O)c1=O [Compound 12]"
  Plant response rating, Sedge, Umbrella: 40

====

Below, each entry is listed alongside its reported Plant response rating, Barnyardgrass.
System: barnyardgrass (Echinochloa crus-galli)
Assay: Test B flooded paddy test
Format: in vivo
Details: Flood (flooded paddy test), 62 g ai/ha; scale 0 to 100, 0 is no effect, 100 is complete control; 13 to 15 days
METRIC NAME: Plant response rating, Barnyardgrass

- SMILES: "CCCCc1ncc(C(=O)C2=C(O)CCCC2=O)c(=O)n1-c1ccccc1"
  TARGET SYSTEM: "barnyardgrass (Echinochloa crus-galli)"
  EXPERIMENTAL VALUE: 0
- SMILES: "O=C1CCCC(O)=C1C(=O)c1cnc(-c2ccccc2)n(-c2ccccc2F)c1=O"
  TARGET SYSTEM: "barnyardgrass (Echinochloa crus-galli)"
  EXPERIMENTAL VALUE: 0
- SMILES: "Cc1cc(C)cc(-n2c(-c3ccccc3)ncc(C(=O)C3=C(O)CCCC3=O)c2=O)c1"
  TARGET SYSTEM: "barnyardgrass (Echinochloa crus-galli)"
  EXPERIMENTAL VALUE: 20
- SMILES: "Cc1ccc(-n2c(-c3ccccc3)ncc(C(=O)C3=C(O)CCCC3=O)c2=O)c(C)c1"
  TARGET SYSTEM: "barnyardgrass (Echinochloa crus-galli)"
  EXPERIMENTAL VALUE: 10
- SMILES: "Cc1c(Cl)cccc1-n1c(-c2ccccc2)ncc(C(=O)C2=C(O)CCCC2=O)c1=O"
  TARGET SYSTEM: "barnyardgrass (Echinochloa crus-galli)"
  EXPERIMENTAL VALUE: 0
- SMILES: "C=CCn1c(-c2ccccc2)ncc(C(=O)C2=C(O)CCCC2=O)c1=O"
  TARGET SYSTEM: "barnyardgrass (Echinochloa crus-galli)"
  EXPERIMENTAL VALUE: 0

====

Test system: Italian ryegrass (Lolium multiflorum)
Assay: Test B pre-/postemergence plant response
Type: in vivo
Conditions: Postemergence, 31 g ai/ha; 0 to 100 scale (0 no effect, 100 complete control)
Parameter: Plant response rating, Ryegrass, Italian. Scope: all listed entries.
METRIC NAME: Plant response rating, Ryegrass, Italian

- COMPOUND: "COCCCn1c(-c2cccc(F)c2)ncc(C(=O)C2=C(O)C3CCC(C3)C2=O)c1=O (stereo not shown)"
  EXPERIMENTAL VALUE: 20
- COMPOUND: "CCCn1c(-c2cccc(Cl)c2)ncc(C(=O)C2=C(O)CCCC2=O)c1=O"
  EXPERIMENTAL VALUE: 0
- COMPOUND: "COCCn1c(-c2cccc(F)c2)ncc(C(=O)C2=C(O)C3CCC(C3)C2=O)c1=O (stereo not shown)"
  EXPERIMENTAL VALUE: 30
- COMPOUND: "Cc1ccccc1-n1c(-c2cc(F)cc(F)c2)ncc(C(=O)C2=C(O)CCCC2=O)c1=O"
  EXPERIMENTAL VALUE: 30
- COMPOUND: "CCCn1c(-c2cccc(C(F)(F)F)c2)ncc(C(=O)C2=C(O)CCCC2=O)c1=O"
  EXPERIMENTAL VALUE: 5
- COMPOUND: "CCCn1c(-c2cccc(Br)c2)ncc(C(=O)C2=C(O)CCCC2=O)c1=O"
  EXPERIMENTAL VALUE: 0
- COMPOUND: "COCCCn1c(-c2cccc(Br)c2)ncc(C(=O)C2=C(O)CCCC2=O)c1=O"
  EXPERIMENTAL VALUE: 0

====

The entries below are paired with their reported Plant response rating, Nutsedge, Yellow.
Tested on: yellow nutsedge (Cyperus esculentus)
Experiment: Test B pre-/postemergence plant response
Type: in vivo
Settings: 31 g ai/ha, postemergence; scale 0 to 100, 0 is no effect, 100 is complete control

- MOLECULE: "CCCCn1c(-c2cc(F)cc(F)c2)ncc(C(=O)C2=C(O)CCCC2=O)c1=O"
  Plant response rating, Nutsedge, Yellow: 5
- MOLECULE: "O=C1CCCC(O)=C1C(=O)c1cnc(-c2ccsc2)n(-c2ccccc2)c1=O"
  Plant response rating, Nutsedge, Yellow: 20
- MOLECULE: "COCCn1c(-c2cccc(C)c2)ncc(C(=O)C2=C(O)CCCC2=O)c1=O"
  Plant response rating, Nutsedge, Yellow: 0
- MOLECULE: "COCCCn1c(-c2cccc(C)c2)ncc(C(=O)C2=C(O)CCCC2=O)c1=O"
  Plant response rating, Nutsedge, Yellow: 35
- MOLECULE: "CCCc1ncc(C(=O)C2=C(O)CCCC2=O)c(=O)n1CC1CCCO1 (stereo not drawn)"
  Plant response rating, Nutsedge, Yellow: 20
- MOLECULE: "Cc1ccc(-c2ncc(C(=O)C3=C(O)CCCC3=O)c(=O)n2-c2ccccc2)cc1"
  Plant response rating, Nutsedge, Yellow: 10

====

Each entry below carries its reported Plant response rating, Pigweed.
System: pigweed (Amaranthus retroflexus)
Experiment: Test A pre-/postemergence plant response
Format: in vivo
Conditions: Preemergence, 500 g ai/ha; visual injury, 0 to 100 scale (0 no effect, 100 complete control), approx. ten days
METRIC NAME: Plant response rating, Pigweed

- SMILES: "CCCn1c(-c2cccs2)ncc(C(=O)C2=C(O)CCCC2=O)c1=O"
  EXPERIMENTAL VALUE: 90
- SMILES: "Cc1ccc(F)cc1-n1c(-c2ccccc2)ncc(C(=O)C2=C(O)CCCC2=O)c1=O"
  EXPERIMENTAL VALUE: 90
- SMILES: "Cc1cc(C)cc(-n2c(-c3ccccc3)ncc(C(=O)C3=C(O)CCCC3=O)c2=O)c1"
  EXPERIMENTAL VALUE: 90
- SMILES: "Cn1c(-c2ccccc2)ncc(C(=O)C2=C(O)CCCC2=O)c1=O"
  EXPERIMENTAL VALUE: 100
- SMILES: "CCCCn1c(-c2cccc(Br)c2)ncc(C(=O)C2=C(O)CCCC2=O)c1=O"
  EXPERIMENTAL VALUE: 90
- SMILES: "O=C1CCCC(O)=C1C(=O)c1cnc(-c2ccsc2)n(-c2ccccc2)c1=O"
  EXPERIMENTAL VALUE: 100
- SMILES: "CCCCn1c(-c2cccc(F)c2)ncc(C(=O)C2=C(O)CCCC2=O)c1=O"
  EXPERIMENTAL VALUE: 90
- SMILES: "COCCCn1c(-c2cccc(C)c2)ncc(C(=O)C2=C(O)CCCC2=O)c1=O"
  EXPERIMENTAL VALUE: 100
